# TARGET OR TEST SYSTEM: T1, HuCD3E (Homo sapiens, UniProt P07766 23-126, limits assumed)
# T1 construct: Recombinant analyte in SPR and antigen in ELISA; also called human CD3; human CD3 epsilon
# T1 sequence (P07766 23-126 limits assumed): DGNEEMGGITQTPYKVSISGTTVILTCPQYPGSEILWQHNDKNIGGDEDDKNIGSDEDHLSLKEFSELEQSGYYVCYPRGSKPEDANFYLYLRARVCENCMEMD
# TEST: SPR, Biacore 8K; CD3 Affinity column: Hi
pKd: −log10 of the molar value.
MEASURED METRIC: pKd

{"columns": ["BINDER", "pKd"],
 "data": [
  ["ABP100s.5 (antibody, V domains shown) VH: EVQLVESGGGLVQPGGSLKLSCAASGFTFNTYAMNWVRQAPGKGLEWVARIRSKYNNYATYYADSVKDRFTISRDDSKNTAYLQMNSLKTEDTAVYYCVRHGNFGNSYVSWFAYWGQGTLVTVSS VL: QTVVTQEPSLTVSPGGTVTLTCRSSTGAVTTSNYANWVQQKPGQAFRGLIGGTNKRAPGVPARFSGSLLGGKAALTLSGVQPEDEAIYFCALWYSNLWVFGGGTKLEIK", "> 8.00"],
  ["ABP100s.10.2 (antibody, V domains shown) VH: EVQLVESGGGLVQPGGSLKLSCAASGFTFNTYAMNWVRQAPGKCLEWVARIRSKYNNYATYYADSVKDRFTISRDDSKNTAYLQMNSLKTEDTAVYYCVRHGNFGNSYVSWFAYWGQGTLVTVSS VL: QTVVTQEPSLTVSPGGTVTLTCRSSTGAVTTSNYANWVQQKPGQAFRGLIGGTNKRAPGVPARFSGSLLGGKAALTLSGVQPEDEAIYFCALWYSNLWVFGCGTKLTVL", "> 8.00"]
]}

Next binder, pKd to be filled in.
input: # query: pKd of entry ABP100s.5.1 (antibody, V domains shown) VH: EVQLVESGGGLVQPGGSLKLSCAASGFTFNTYAMNWVRQAPGKCLEWVARIRSKYNNYATYYADSVKDRFTISRDDSKNTAYLQMNSLKTEDTAVYYCVRHGNFGNSYVSWFAYWGQGTLVTVSS VL: QTVVTQEPSLTVSPGGTVTLTCRSSTGAVTTSNYANWVQQKPGQAFRGLIGGTNKRAPGVPARFSGSLLGGKAALTLSGVQPEDEAIYFCALWYSNLWVFGCGTKLEIK
output: > 8.00
